Entries and their measured Papp at 2 h, 3 µM follow.
# method.notes: Caco-2 Permeability Assay
# Format: in vitro ADME
# conditions.used: human, Caco-2, test compound 3 μM
# Method: Caco-2 Permeability Assay Thirteen to 27 days prior to assay, Caco-2 cells were seeded onto collagen-coated polycarbonate filter membranes in 24-well transwell plates at a density of 1.45×10^5 cells/cm^2, approximately 4.8×10^4 cells per well. […] The cells were evaluated for tight junction formation just prior to assay. […] The samples were subsequently analyzed by LC-MS/MS to determine concentrations of compound.
measured.parameter: Papp at 2 h, 3 µM (×10⁻⁶ cm/s)

- molecule: "CC(C)Nc1cc(-n2ccc3cc(C#N)cnc32)ncc1-c1cn(CCN2CCOCC2)nn1 [Example 163]"
  result.comparator: "="
  observed.result: 19.5
- molecule: "CC(=O)N1CCCC(n2cc(-c3cnc(-n4ncc5cc(C#N)cnc54)cc3NC(C)C)nn2)C1 (stereo not shown) [Example 160]"
  result.comparator: "="
  observed.result: 1.8
- molecule: "CC(C)Nc1cc(-n2ncc3cc(C#N)cnc32)ncc1-c1cn(C[C@@H](C)O)nn1 [Example 66]"
  result.comparator: "="
  observed.result: 5.9
- molecule: "CCCn1cc(-c2cnc(-n3ncc4cc(C#N)c(N)nc43)cc2NC2CC2)nn1 [Example 35]"
  result.comparator: "="
  observed.result: 23.7
- molecule: "CC(C)Nc1cc(-n2ncc3cc(C#N)cnc32)ncc1-c1cc(C(CO)CO)no1 [Example 399]"
  result.comparator: "<"
  observed.result: 1.5
- molecule: "CCCn1cc(-c2cnc(-n3ncc4cc(C#N)cnc43)cc2NCC)nn1 [Example 54]"
  result.comparator: "="
  observed.result: 40.8
- molecule: "CCCn1cc(-c2cnc(-n3ncc4cc(C#N)cnc43)cc2Nc2cnn(CC(F)F)c2)nn1 [Example 60]"
  result.comparator: "="
  observed.result: 11.9
- molecule: "CC(C)Nc1cc(-n2ncc3cc(C#N)cnc32)ncc1-n1cc(C2CCN(C(=O)CC(C)(C)O)CC2)nn1 [Example 360]"
  result.comparator: "="
  observed.result: 3.6
- molecule: "CC(C)Nc1cc(-n2ncc3cc(C#N)cnc32)ncc1-c1cn(CCc2ccncc2)nn1 [Example 120]"
  result.comparator: "="
  observed.result: 7.4
- molecule: "CC(C)Nc1cc(-n2ncc3cc(C#N)cnc32)ncc1-n1cc(CCC(C)(C)OC(=O)CN)nn1 [Example 378]"
  result.comparator: "<"
  observed.result: 1.5
- molecule: "CCOCCn1cc(-c2cnc(-n3ncc4cc(C#N)cnc43)cc2NC(C)C)nn1 [Example 122]"
  result.comparator: "="
  observed.result: 32.2
- molecule: "CCN1CCOC[C@H]1c1cc(-c2cnc(-n3ncc4cc(C#N)cnc43)cc2NC(C)C)no1 [Example 431]"
  result.comparator: "="
  observed.result: 21.8
- molecule: "CC(C)Nc1cc(-n2ncc3cc(C#N)cnc32)ncc1-c1cn([C@H]2CC[C@H](N)CC2)nn1 [Example 392]"
  result.comparator: "<"
  observed.result: 1.5
- molecule: "CCCn1cc(-c2cnc(-n3cnc4cnc(N)nc43)cc2NC(C)C)nn1 [Example 62]"
  result.comparator: "="
  observed.result: 32.1
- molecule: "CC(C)Nc1cc(-n2ncc3cc(C#N)cnc32)ncc1-n1cc(C2CCOCC2)nn1 [Example 355]"
  result.comparator: "="
  observed.result: 48.7
- molecule: "CC(F)Cn1cc(-c2cnc(-n3ncc4cc(C#N)cnc43)cc2NC(C)C)nn1 (single isomer, unassigned; enantiomer 1) [Example 166]"
  result.comparator: "="
  observed.result: 36.1
- molecule: "CC(C)Nc1cc(-n2ncc3cc(C#N)cnc32)ncc1-c1cn(C2CCN(C)C2=O)nn1 (stereo not shown) [Example 21]"
  result.comparator: "="
  observed.result: 4.2
- molecule: "CC(C)Nc1cc(-n2ncc3cc(C#N)cnc32)ncc1-c1cn(CC(C)(C)O)nn1 [Example 63]"
  result.comparator: "="
  observed.result: 7.8
- molecule: "CCCn1cc(-c2cnc(-n3cnc4cc(C#N)cnc43)cc2NC(C)C)nn1 [Example 40]"
  result.comparator: "="
  observed.result: 27.8
- molecule: "CC(C)Nc1cc(-n2ncc3cc(C#N)cnc32)ncc1-c1cc(C2CCCCN2)no1 (stereo not shown) [Example 412]"
  result.comparator: "="
  observed.result: 13.9
- molecule: "CC(C)Nc1cc(-n2ncc3cc(C#N)cnc32)ncc1-c1cn(CCC(C)(C)O)nn1 [Example 128]"
  result.comparator: "="
  observed.result: 5
- molecule: "N#Cc1cnc2c(cnn2-c2cc(NC3CC3)c(-c3cn([C@@H]4CNCC[C@H]4O)nn3)cn2)c1 (relative stereo) [Example 207]"
  result.comparator: "<"
  observed.result: 1.5
- molecule: "CC(C)Nc1cc(-n2ncc3cc(C#N)cnc32)ncc1-c1cn(CC2CC2(F)F)nn1 (single isomer, unassigned) [Example 31]"
  result.comparator: "="
  observed.result: 15.9
- molecule: "CC(C)Nc1cc(-n2ncc3cc(C#N)cnc32)ncc1-c1cn([C@H]2CCNC[C@H]2O)nn1 [Example 177]"
  result.comparator: "<"
  observed.result: 1.5
- molecule: "CC(C)(O)CCC1CC(c2cnc(-n3ncc4cc(C#N)cnc43)cc2NCC(F)F)=NO1 (stereo not shown) [Example 443]"
  result.comparator: "="
  observed.result: 14.1
- molecule: "CCCn1cnc(-c2cnc(-n3ncc4cc(C#N)cnc43)cc2NC(C)C)c1 [Example 219]"
  result.comparator: "="
  observed.result: 31.8
- molecule: "CC(C)Nc1cc(-n2ncc3cc(C#N)cnc32)ncc1-c1cn([C@H]2CCN(C(=O)C(C)(C)C)C[C@H]2O)nn1 [Example 179]"
  result.comparator: "="
  observed.result: 1.8
- molecule: "CC(C)Nc1cc(-n2ncc3cc(C#N)cnc32)ncc1-n1cc(CCC(C)(C)OC(=O)CN(C)C)nn1 [Example 384]"
  result.comparator: "="
  observed.result: 13.1
- molecule: "CC(=O)N1CC[C@@H](n2cc(-c3cnc(-n4ncc5cc(C#N)cnc54)cc3NC(C)C)nn2)[C@@H](O)C1 [Example 191]"
  result.comparator: "<"
  observed.result: 1.5
- molecule: "CC(C)Nc1cc(-n2ncc3cc(C#N)cnc32)ncc1-c1cn(C2CCOC2)nn1 (stereo not shown) [Example 214]"
  result.comparator: "="
  observed.result: 13.6
- molecule: "CC(F)Cc1cn(-c2cnc(-n3ncc4cc(C#N)cnc43)cc2NC2CC2)nn1 (stereo not shown) [Example 354]"
  result.comparator: "="
  observed.result: 36
